- Test system: PC3
MEASUREMENT_NAME: log10(GI50) (log10 of the value in µM)

[
  {
    "COMPOUND": "C=CC(=O)Nc1ncnc2c1c(-c1ccccc1)nn2C(C)(C)C [Compound 2]",
    "log10(GI50)": 0.34
  },
  {
    "COMPOUND": "CC(C)(C)n1nc(-c2ccccc2)c2c(NC(=O)CCl)ncnc21 [Compound 4]",
    "log10(GI50)": 0.80
  },
  {
    "COMPOUND": "CC(C)(C)n1nc(-c2ccccc2)c2c(N)ncnc21 [Compound 1]",
    "log10(GI50)": 1.04
  },
  {
    "COMPOUND": "C=CC(=O)N(C(=O)C=C)c1ncnc2c1c(-c1ccccc1)nn2C(C)(C)C [Compound 3]",
    "log10(GI50)": 0.52
  },
  {
    "COMPOUND": "C=CC(=O)N(C(=O)C=C)c1ncnc2c1c(-c1ccc3ccccc3c1)nn2C(C)(C)C [Compound 7]",
    "log10(GI50)": 0.79
  },
  {
    "COMPOUND": "CC(C)(C)n1nc(-c2ccc3ccccc3c2)c2c(N)ncnc21 [Compound 5]",
    "log10(GI50)": 0.77
  },
  {
    "COMPOUND": "C=CC(=O)Nc1ncnc2c1c(-c1ccc3ccccc3c1)nn2C(C)(C)C [Compound 6]",
    "log10(GI50)": -0.52
  }
]
